- assayed.system: EP2 subtype of the human PGE2 receptor (Homo sapiens)
- Sequence (P43116 whole entry): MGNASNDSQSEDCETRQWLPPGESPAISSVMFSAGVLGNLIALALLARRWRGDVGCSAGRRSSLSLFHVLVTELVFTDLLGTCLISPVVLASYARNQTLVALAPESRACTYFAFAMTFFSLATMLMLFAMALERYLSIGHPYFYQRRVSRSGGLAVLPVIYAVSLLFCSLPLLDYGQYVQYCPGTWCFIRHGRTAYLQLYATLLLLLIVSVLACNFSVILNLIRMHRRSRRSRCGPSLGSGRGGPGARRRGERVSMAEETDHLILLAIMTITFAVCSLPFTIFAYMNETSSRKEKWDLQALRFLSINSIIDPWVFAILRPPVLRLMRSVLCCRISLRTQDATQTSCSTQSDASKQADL
- protocol.text: cAMP antagonism test on the human EP2 receptor (HTRF cAMP detection)
- Format: cell-based
- run.conditions: hEP2 receptor, read-out: Antagonism hEP2 IC50
- Description: 1. Detection of Antagonism to the Human Prostaglandin E2 (Subtype EP2) Receptor Signal The binding of PGE2 to the EP2 subtype of the human PGE2 receptor induces the activation of membrane-located adenylate cyclases and leads to the formation of cAMP. […] In this test, the cAMP present in the lysate competes with a fluorescence-labelled cAMP (cAMP-d2) for binding to an Eu cryptate-labelled anti-cAMP antibody. […]
reported.endpoint: log10 IC50 (log10 of the value in nM)
A value of 2 here means IC50 of 100 in nM, since values are log10.

COCCNC(=O)c1cc2cn(CC3CCN(C(=O)c4ccc(Cl)cc4F)CC3)nc2cc1C ... 1.48

Field: log10 IC50 (EP2 subtype of the human PGE2 receptor (Homo sapiens)). Entry: COCCNC(=O)c1ccc2nn(CC3CCN(C(=O)c4ccc(Cl)cc4)CC3)cc2c1OC(F)F
1.16

Ok, now COCCNC(=O)c1ccc2nn(CC3CCN(C(=O)c4ccc(S(=O)(=O)C(F)(F)F)cc4)CC3)cc2c1C
1.40

Ok, now Cc1c(C(=O)NCCN2CCC(F)(F)C2)ccc2nn(CC3CCN(C(=O)c4ccc(S(F)(F)(F)(F)F)cc4)CC3)cc12
1.25

Ok, now Cc1c(C(=O)NCC(C)OCC2CC2)ccc2nn(CC3CCN(C(=O)c4ccc(C5CC5)cc4)CC3)cc12 (racemic)
2.18

Ok, now Cc1c(C(=O)NCC(F)(F)F)ccc2nn(CC3CCN(C(=O)c4ccc(Oc5ccc(F)cc5F)cc4)CC3)cc12
1.95

Ok, now COCCNC(=O)c1ccc2nn(CC3CCN(C(=O)c4ccc(-n5cccn5)cc4)CC3)cc2c1C
1.45

Ok, now COCCNC(=O)c1ccc2nn(CC3CCN(C(=O)c4ccc(Oc5ncccn5)cc4)CC3)cc2c1C
2.01

Ok, now Cc1c(C(=O)NCCCO)ccc2nn(CC3CCN(C(=O)c4ccc(-c5ccc(F)cc5)cc4)CC3)cc12
1.50

Ok, now Cc1cc2nn(CC3CN(C(=O)c4ccc(Cl)cc4)C3)cc2cc1C(=O)NCCSC(F)(F)F
1.53

Ok, now Cc1c(C(=O)NCC(F)(F)F)ccc2nn(CC3CCN(C(=O)c4ccc(-c5ccc(Cl)cn5)cc4)CC3)cc12
2.26

###

The reader will find reported IC50 values listed item by item below.
- assayed.system: EP2 subtype of the human PGE2 receptor (Homo sapiens)
- protocol.text: cAMP antagonism test on the human EP2 receptor (HTRF cAMP detection)
- Assay type: cell-based
- run.conditions: hEP2 receptor, read-out: Antagonism hEP2 IC50
API: value field is a number in nM; no unit string.

// worked examples, IC50 included
Cc1c(C(=O)NCCN2CCOCC2)ccc2nn(CC3CCN(C(=O)c4ccc(Oc5ccc(F)cc5)cc4)CC3)cc12 [Example 67] ... 405
COCCNC(=O)c1ccc2nn(CC3CCN(C(=O)c4ccc(-c5ccccc5)c(C)c4)CC3)cc2c1C [Example 394] ... 5.7
COCCNC(=O)c1ccc2nn(CC3CCN(C(=O)c4ccc(-c5ccc(C#N)cc5C)cc4)CC3)cc2c1C [Example 367] ... 5.84

Query: IC50; subject: COCCNC(=O)c1ccc2nn(CC3CCN(C(=O)c4cn(C)c5ccccc45)CC3)cc2c1C [Example 331]
9.47
